Tested on: purified cynomolgus CD45 ectodomain (cynomolgus monkey)
Sequence (chain, as listed by the source limits assumed, form in doubt): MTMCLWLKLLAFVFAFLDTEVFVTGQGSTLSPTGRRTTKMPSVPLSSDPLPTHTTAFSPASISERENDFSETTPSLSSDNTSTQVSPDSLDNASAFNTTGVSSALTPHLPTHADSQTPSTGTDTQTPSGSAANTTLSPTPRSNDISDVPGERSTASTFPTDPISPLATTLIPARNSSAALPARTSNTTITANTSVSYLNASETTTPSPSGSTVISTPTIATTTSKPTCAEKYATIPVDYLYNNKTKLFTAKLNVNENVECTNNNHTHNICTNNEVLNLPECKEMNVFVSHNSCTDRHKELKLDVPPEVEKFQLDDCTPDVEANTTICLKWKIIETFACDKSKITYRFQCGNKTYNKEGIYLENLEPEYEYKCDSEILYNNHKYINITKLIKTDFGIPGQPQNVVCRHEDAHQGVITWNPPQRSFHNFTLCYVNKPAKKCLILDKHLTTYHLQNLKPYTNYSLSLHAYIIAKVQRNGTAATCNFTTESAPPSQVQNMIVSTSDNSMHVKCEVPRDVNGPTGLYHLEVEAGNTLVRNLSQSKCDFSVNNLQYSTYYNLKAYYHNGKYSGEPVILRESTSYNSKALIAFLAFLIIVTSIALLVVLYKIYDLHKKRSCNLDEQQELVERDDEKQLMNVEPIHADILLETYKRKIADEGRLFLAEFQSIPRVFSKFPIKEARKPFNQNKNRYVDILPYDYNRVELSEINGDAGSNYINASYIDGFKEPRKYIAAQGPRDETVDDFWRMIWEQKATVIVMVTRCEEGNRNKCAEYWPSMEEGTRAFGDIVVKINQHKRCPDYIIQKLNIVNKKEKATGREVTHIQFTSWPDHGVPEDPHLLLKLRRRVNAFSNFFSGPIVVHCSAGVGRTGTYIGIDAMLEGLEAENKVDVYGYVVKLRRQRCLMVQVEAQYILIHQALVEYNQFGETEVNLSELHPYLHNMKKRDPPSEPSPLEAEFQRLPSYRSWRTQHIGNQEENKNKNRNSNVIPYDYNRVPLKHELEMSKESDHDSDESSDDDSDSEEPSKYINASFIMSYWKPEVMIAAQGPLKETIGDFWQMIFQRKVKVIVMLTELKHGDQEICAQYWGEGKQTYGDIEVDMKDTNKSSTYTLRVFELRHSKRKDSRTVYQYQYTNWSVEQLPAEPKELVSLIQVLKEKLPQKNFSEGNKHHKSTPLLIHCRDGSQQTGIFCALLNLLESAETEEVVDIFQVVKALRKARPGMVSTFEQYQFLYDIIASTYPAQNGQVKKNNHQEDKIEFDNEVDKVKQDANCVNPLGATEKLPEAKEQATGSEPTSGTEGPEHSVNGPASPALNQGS
Test protocol: BLI (Octet Red96), IgG on anti-human Fc sensor, 50 nM CD45 ectodomain, 1:1 fit
This listing pairs binders with measured kon.
# value in M⁻¹ s⁻¹; strip the unit string

Sample records with kon:
Binder | kon (M⁻¹ s⁻¹)
Antibody 6 (Ab6) (antibody, V domains shown) VH: EVQLVESGGGLVQPGGSLRLSCAASGFTFEAYSMNWVRQAPGKGLEWVSYISLSGATIHYADSVKGRFTISRDNAKNSLYLQMNSLRAEDTAVYYCARGGQYYYTSSDYGEVAFDIWGQGTLVTVSS VL: DIVLTQSPLSLPVTPGEPASISCRSSQSLVSSGYNYLDWYLQKPGQSPQLLIYFGSSRASGVPDRFSGSGSGTDFTLKISRVEAEDVGVYYCMQRRRTPWSFGGGTKVEIK | 118000
Antibody 7 (Ab7) (antibody, V domains shown) VH: QVQLVESGGGLVKPGGSLRLSCAASGFTFGGYSMNWVRQAPGKGLEWVSYISISGATITYADSVKGRFTISRDNAKNSLYLQMNSLRAEDTAVYYCARGGQYYYDSSDYGEVAFDIWGQGTMVTVSS VL: DIVMTQSPLSLPVTPGEPASISCRSSQSLVSSGYNYLDWYLQKPGQSPQLLIYFGSSRASGVPDRFSGSGSGTDFTLKISRVEAEDVGVYYCMQRRRTPPFTFGGGTKVEIK | 127000

Please report the recorded kon for Antibody 5 (Ab5) (antibody, V domains shown) VH: EVQLVESGGGLVQPGGSLRLSCAASGFTFEAYSMNWVRQAPGKGLEWVSYISLSGATIHYADSVKGRFTISRDNAKNSLYLQMNSLRAEDTAVYYCARGGQYYYTSSDYGEVAFDIWGQGTMVTVSS VL: DIVMTQSPLSLPVTPGEPASISCRSSQSLVSSGYNYLDWYLQKPGQSPQLLIYFGSSRASGVPDRFSGSGSGTDFTLKISRVEAEDVGVYYCMQRRRTPWSFGGGTKVEIK .
117000
